- Tested on: Saccharomyces cerevisiae
- Experiment: protein stability index of tFT-peptide fusion (C-terminal peptide) (PSI (0-1 scale)); higher = more stable (slower turnover);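 further: PSI is a weighted mean of sequencing reads over stability bins, variants kept only with over 10 reads, mCherry proximal and sfGFP distal, peptide attached via GGGS linker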
- Measurement conditions: genetic background: wild type; temperature: 30 C
Property name: protein stability index
Format: numeric value only, no unit, no commentary.

{"columns": ["Query sequence", "protein stability index"],
 "data": [
  ["VQFISLVCLFRF", 0.303],
  ["PCTFYLFWMFFV", 0.228]
]}

Challenge: Which measured protein stability index value corresponds to `YHGVYLARVLQA` ?
Response given: 0.286

Challenge: Which measured protein stability index value corresponds to `RIIDRVSRLIML` ?
Response given: 0.482

Challenge: Which measured protein stability index value corresponds to `LSLSPRLPRLVA` ?
Response given: 0.197

====

- Test system: Saccharomyces cerevisiae
- Experiment: protein stability index of tFT-peptide fusion (C-terminal peptide) (PSI (0-1 scale)); higher = more stable (slower turnover)
- Measurement conditions: genetic background: wild type; temperature: 30 C
Property name: protein stability index

{"columns": ["Query sequence", "protein stability index"],
 "data": [
  ["CQSRLPSTKNRH", 0.695],
  ["AGGGRRRLDGGR", 0.703],
  ["PAPASDYLRGRR", 0.691]
]}

Challenge: Which measured protein stability index value corresponds to `GRRPPWRFSFPF` ?
Response given: 0.769

Challenge: Which measured protein stability index value corresponds to `WLGFHFLFLWKC` ?
Response given: 0.587

Challenge: Which measured protein stability index value corresponds to `GFSRELTLARLI` ?
Response given: 0.613

Challenge: Which measured protein stability index value corresponds to `DLFSALWGEYVL` ?
Response given: 0.741

Challenge: Which measured protein stability index value corresponds to `PSPPHPPPPSPY` ?
Response given: 0.753

Challenge: Which measured protein stability index value corresponds to `CVCAIVDGGTFG` ?
Response given: 0.723

Challenge: Which measured protein stability index value corresponds to `EGAGRRYRCGWG` ?
Response given: 0.698

Challenge: Which measured protein stability index value corresponds to `WFSCYSGQSSNF` ?
Response given: 0.757

Challenge: Which measured protein stability index value corresponds to `PVLPPLLPLPCL` ?
Response given: 0.644

Challenge: Which measured protein stability index value corresponds to `HVTRGMTHLTLF` ?
Response given: 0.635

Challenge: Which measured protein stability index value corresponds to `ASSFYVDLVLVS` ?
Response given: 0.447

Challenge: Which measured protein stability index value corresponds to `STGRTSVNLCFS` ?
Response given: 0.706

Challenge: Which measured protein stability index value corresponds to `FRLGTMYDILPL` ?
Response given: 0.69

Challenge: Which measured protein stability index value corresponds to `PRPCPASSPRPP` ?
Response given: 0.627

Challenge: Which measured protein stability index value corresponds to `GVVGGGEDRWSV` ?
Response given: 0.738

====

Measured protein stability index by item
- System: Saccharomyces cerevisiae
- Experiment: protein stability index of tFT-peptide fusion (C-terminal peptide) (PSI (0-1 scale)); higher = more stable (slower turnover)
- Measurement conditions: genetic background: wild type; temperature: 30 C
Format: numeric value only, no unit, no commentary.

Previously resolved entries follow.
{"columns": ["Query sequence", "Property name", "Measurement"],
 "data": [
  ["GYLLGCGCGWSG", "protein stability index", 0.621],
  ["RLRPRHPRLLRS", "protein stability index", 0.735],
  ["EDHSCVFSAFCF", "protein stability index", 0.663],
  ["FFPLRLLPLVPR", "protein stability index", 0.645],
  ["RLCKGQKYTKIN", "protein stability index", 0.105],
  ["CVDTNIERSCVC", "protein stability index", 0.662]
]}

Challenge: Which measured protein stability index value corresponds to `PGTGPPSWGRTS` ?
Response given: 0.605

Challenge: Which measured protein stability index value corresponds to `RKGVSLAILLGP` ?
Response given: 0.67

Challenge: Which measured protein stability index value corresponds to `ARGIVAHKVTQP` ?
Response given: 0.65

Challenge: Which measured protein stability index value corresponds to `SPPPAPRPPLPP` ?
Response given: 0.709

Challenge: Which measured protein stability index value corresponds to `KIIARMEKGKEI` ?
Response given: 0.771

Challenge: Which measured protein stability index value corresponds to `VVVLCLFFSFFL` ?
Response given: 0.587

Challenge: Which measured protein stability index value corresponds to `PLRRPFSSPFLL` ?
Response given: 0.59

Challenge: Which measured protein stability index value corresponds to `GGRLGRGVVRGW` ?
Response given: 0.704

Challenge: Which measured protein stability index value corresponds to `VGAFCLLLGFEG` ?
Response given: 0.599

Challenge: Which measured protein stability index value corresponds to `RAARGQQGGPVA` ?
Response given: 0.651

Challenge: Which measured protein stability index value corresponds to `SSGAIKPDFRMA` ?
Response given: 0.745

Challenge: Which measured protein stability index value corresponds to `SSPAYPYWTRIF` ?
Response given: 0.777

Challenge: Which measured protein stability index value corresponds to `GGVRRSPRAILR` ?
Response given: 0.705

Challenge: Which measured protein stability index value corresponds to `WGCCRPERNCAV` ?
Response given: 0.702
